Reference source for all entries: PubChem BioAssay (NCI)

assay method text: NCI Yeast Anticancer Drug Screen. Data for the rad52 strain (AID 147)
condition context: S. cerevisiae rad52 mutant growth inhibition; at 3.7 µM
About 79,000 compounds went through this panel and 15% of them were active in at least one assay; those are over-represented in the sample as a whole. Active and inactive are the calls of the source. Cut-off read from the data, not from the text of the source: active = growth inhibition above about 70%; inactive = the rest.
Classes used: true (active), false (inactive)

- COc1ccc(C(=O)c2ccccc2C(=O)c2ccccc2OC)cc1: false
- S=C1SCN(C2CCCCC2)CN1C1CCCCC1: false
- N#CNC(N)=Nc1cc2ccccc2c2ccccc12: false
- CCCCCCCCCCCC1=NCCO1: false
- Oc1cccc2cc(Cl)cnc12: false
- CCCCN(CCCC)C(=O)/C=C/c1ccccc1: false
- CC(C)(C)c1ccc(NS(=O)(=O)c2ccc(N)cc2)cc1: false
- O=C1C=C(c2ccccc2)OC1(c1ccccc1)N1CCOCC1 (centres undefined): false
- Cn1c(=O)c2c(nc(N)n2C2OC(CO)C(O)C2O)n(C)c1=O (centres undefined): false
- Cc1cc(-c2cc(C)c(O)c(C(C)(C)C)c2)cc(C(C)(C)C)c1O: false
- Clc1ccc(NCNC2Nc3ccccc3N2)cc1Cl: false
- O=C1OC(OC/C(Br)=C(\Br)COC2OC(=O)C(Cl)=C2Cl)C(Cl)=C1Cl (centres undefined): false
- CC(O)=NC(Cc1ccc2ccccc2c1)C(O)=NC(Cc1ccc(Cl)cc1)C(O)=NC(Cc1c[nH]c2ccccc12)C(O)=NC(CO)C(O)=NC(Cc1ccc(O)cc1)C(O)=NC(CCCN=C(N)N)C(O)=NC(CC(C)C)C(O)=NC(CCCN=C(N)N)C(=O)N1CCCC1C(O)=NC(C)C(=N)O (centres undefined): false
- COc1ccc(C(=O)C(CN(C)C)CN(C)C)cc1: false
- C=C1CC(CCCl)(c2ccccc2)OC1=O (centres undefined): false
- CC[N+]1(C)CCC(O)(c2ccc(OC)cc2)C(C(=O)c2ccc(OC)cc2)C1 (centres undefined): false
- CCCCCCCCCCCCCCCCOP(=O)(O)OCC(N)C(=O)O (centres undefined): false
- CC(=O)SC(C[N+](=O)[O-])c1ccccc1 (centres undefined): true
- CNC(=O)OCc1c(COC(=O)NC)c2n(c1C)-c1ccc(OC)cc1CCC2: false
- CSc1nc(C)c(CCOC(C)=O)c(N=P(c2ccccc2)(c2ccccc2)c2ccccc2)n1: false
- O=C(NNc1ccccc1)c1ccc(Cl)c(Cl)c1: false
- CCCCOCn1c(=O)[nH]c(=O)c2cc(Br)ccc21: false
- CNCCCNc1c2ccccc2nc2cccc([N+](=O)[O-])c12: true
- COc1ccc(C2C3=C(COC3=O)OC(C)(C)Oc3cc4c(cc32)OCO4)cc1OC (centres undefined): false
